Every entry's value here was drawn from paper PMC12282080.

Kindly supply the reported koff values for the records listed here.
target: SFTSV Gn glycoprotein (G19-K452, C3 genotype) (SFTSV (severe fever with …)); assay: BLI
Numbers only, in s⁻¹.

// below: answered binders
>  <binder>
SD4-X monoclonal antibody (human IgG1) (antibody, V domains shown) VH: QVQLVESGGGVVQPGRSLRLSCAASGFTFSSYGMHWVRQAPGKGLEWVAVISYDGSNKYYADSVKGRFTISRDNSKNTLYLQMNSLRAEDTAVYYCAKDRDYYGSGFFDYWGQGTLVTVSS VL: DIQMTQSPSSLSASVGDRVTITCQASQDISNHLNWYQEKPGKVPKLLIYEASNVETGVPSRFSGSGSGTDFTFTISSLQPEDIATYYCQQYDNLPYTFGQGTKLEIK

>  <koff / s⁻¹>
0.000108

$$$$
>  <binder>
SD4 monoclonal antibody (human IgG1) (antibody, V domains shown) VH: QVQLVESGGGVVQPGRSLRLSCAASGFPFSGYGMHWVRQAPGKGLEWVAVISYDGSEKNYADSVKGRFTISRDNSKNTLYLQMNSLRVEDTAVYYCAKDRDYYGSGFYDYWGQGTLVTVSS VL: DIQMTQSPSSLSASVGDRVTITCQASQHISNHLNWYQQKPGTAPTLLIYEASNLETGVPSRFSGSGSGTDFSFTISSLRPEDFATYYCQQYDNFPLTFGPGTTMDIK

>  <koff / s⁻¹>
1.18e-05

$$$$
>  <binder>
SD22 monoclonal antibody (human IgG1) (antibody, V domains shown) VH: QVQLVESGGGVVQPGRSLRLSCAASGFTFSGFGMHWVRQAPGKGLEWVALISYDGSDTYYSDSVKGRFTISRDNSKNTLYLQLKSLRPDDTAVYYCVGDRDYFGSGFFDHWGQGTLVTVSS VL: DIQMTQSPSSLSASIGDRVTITCRASRHITNHLNWYQHKPGRAPKLLIYEASNLQAGVPSRFSGSGSGTDFTFTISSLQPEDFATYYCQQYDNLPPAFGGGTKVDIK

>  <koff / s⁻¹>
4.01e-05

$$$$
>  <binder>
SD4-S monoclonal antibody (human IgG1) (antibody, V domains shown) VH: QVQLVESGGGVLQPGRSLRLSCAASGFTFSGYGMHWVRQAPGKGLEWVAVISYDGSEKNYGDSVKGRFTISRDNSKNTLYLQINSLRTEDRAVYYCAKDRDYFGSGFFDYWGQGTLVTVSS VL: DIQMTQSPSSLSASVGDRVTITCQASQDITKYLNWYQQKPGKAPKLLIFEASNLETGVPSRFSGSGSGTDFTFTISSLQPEDFATYYCQQYGDFPLTFGGGTKVEIK

>  <koff / s⁻¹>
2.9e-05

$$$$

Looking up SD12 monoclonal antibody (human IgG1) (antibody, V domains shown) VH: EVQLLESGGGLVQPGGSLRLSCAASGFIFSSYAMSWVRQAPGKGLEWVSAISGSGGSTYYADSVKGRFTISRDNSKNTLYLQMNSLRDEDTAVYYCAKDRSYVSSGFFDDWGQGTLVTVSS VL: DIQMTQSPSSLSASVGDRVTITCQASQDISNYLNWYQQRPGKAPKLLIFEASNLETGVPSRFSGSGSGTDFTFTISSLQPEDIATYYCQQYENLLYTFGQGTKLEIK , I see its koff listed as 0.000179
